measured on: IGF2 (human, UniProt P01344)
test method notes: SPR
measured attribute: Kd (pM)
Unit pM implied. Number only.

DVD042 IGF1,2 arm (antibody, V domains shown, DVD-Ig outer) VH: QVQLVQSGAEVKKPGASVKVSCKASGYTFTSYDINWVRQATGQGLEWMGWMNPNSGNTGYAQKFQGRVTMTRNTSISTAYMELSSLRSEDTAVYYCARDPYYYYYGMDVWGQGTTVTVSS VL: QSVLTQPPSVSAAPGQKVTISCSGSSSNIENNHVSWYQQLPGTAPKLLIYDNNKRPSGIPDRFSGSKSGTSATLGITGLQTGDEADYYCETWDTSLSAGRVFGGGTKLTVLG	0.998

Now let's try a different one.
input: May I ask what Kd has been recorded for DVD030 IGF1,2 arm (antibody, V domains shown, DVD-Ig outer) VH: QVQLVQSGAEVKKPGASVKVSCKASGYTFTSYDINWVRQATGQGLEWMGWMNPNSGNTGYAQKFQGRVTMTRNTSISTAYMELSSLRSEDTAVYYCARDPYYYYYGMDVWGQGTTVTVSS VL: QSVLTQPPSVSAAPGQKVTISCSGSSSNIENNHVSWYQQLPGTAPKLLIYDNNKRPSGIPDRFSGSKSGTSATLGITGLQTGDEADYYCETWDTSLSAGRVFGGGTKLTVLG ?
output: 2.34
